test: Substrate specificities of KAZ mutants (ZZ-fused, crude enzyme), furimazine; type: biochemical; conditions: 1 μg substrate, integrated for 60 seconds
Listing: Relative Luminescence Activity Furimazine Int. of selected molecules
Respond using a number only.

KAZ-V44I-A54I-Y138I: KAZ mutant with three amino acid substitutions V44I, A54I and Y138I, SEQ ID NO: 16 (protein) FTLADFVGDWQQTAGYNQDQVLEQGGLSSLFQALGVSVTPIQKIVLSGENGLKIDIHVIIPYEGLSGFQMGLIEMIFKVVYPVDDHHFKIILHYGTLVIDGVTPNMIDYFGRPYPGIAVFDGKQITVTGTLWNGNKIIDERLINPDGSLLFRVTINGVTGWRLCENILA: 9.2
KAZ: wild 19 kDa catalytic protein of Oplophorus luciferase (19kOLase), amino acid sequence SEQ ID NO: 2 (protein, listed as Oplophorus gracilirostris) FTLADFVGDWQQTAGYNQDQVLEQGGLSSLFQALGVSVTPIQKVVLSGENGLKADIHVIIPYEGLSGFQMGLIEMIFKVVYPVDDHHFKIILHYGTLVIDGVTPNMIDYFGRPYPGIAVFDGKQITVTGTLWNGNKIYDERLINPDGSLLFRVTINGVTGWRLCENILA: 0.5
KAZ-V44I-A54I: KAZ mutant with two amino acid substitutions V44I and A54I, SEQ ID NO: 10 (protein) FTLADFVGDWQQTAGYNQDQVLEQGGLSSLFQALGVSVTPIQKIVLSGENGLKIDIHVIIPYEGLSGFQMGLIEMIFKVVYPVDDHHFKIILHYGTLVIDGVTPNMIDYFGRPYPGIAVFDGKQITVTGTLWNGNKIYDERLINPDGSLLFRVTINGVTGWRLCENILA: 4.3
KAZ-Y138I: KAZ with single amino acid substitution Y138I, SEQ ID NO: 8 (protein) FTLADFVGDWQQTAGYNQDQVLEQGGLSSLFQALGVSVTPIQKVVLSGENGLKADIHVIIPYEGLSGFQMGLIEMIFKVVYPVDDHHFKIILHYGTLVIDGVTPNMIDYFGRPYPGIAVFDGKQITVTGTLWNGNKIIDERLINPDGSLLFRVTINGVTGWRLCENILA: 0.8

Now turn to the next molecule.
Entry KAZ-A54I-Y138I: KAZ mutant with two amino acid substitutions A54I and Y138I, SEQ ID NO: 14 (protein) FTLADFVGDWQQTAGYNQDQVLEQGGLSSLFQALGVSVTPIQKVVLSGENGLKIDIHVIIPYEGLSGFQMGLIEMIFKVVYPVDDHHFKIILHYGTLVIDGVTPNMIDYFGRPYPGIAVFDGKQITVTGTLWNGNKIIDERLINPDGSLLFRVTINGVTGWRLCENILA has what Relative Luminescence Activity Furimazine Int.?
5.8
